target: LHRH (Rattus norvegicus, UniProt P30969); construct: evaluated in an in vitro test for LHRH antagonist potency (pA2); endogenous in cells; host or cells: pituitary cells (rat, from my own knowledge of the cited method); experiment: in vitro test for LHRH antagonist potency (pA2); format: cell-based; details: negative logarithm of the antagonist concentration required to shift the response curve produced by the agonist leuprolide to two-fold higher concentration
Numbered stars: 1 amine (or outer) side, 2 acyl side, 3 side chain; on linkers, the order of the positions; unused ones are H or OH. Square brackets hold non-standard residues; d marks the D form. Peptide text beside a SMILES is read from it. * marks the point of attachment. dPhe(4-Cl) = N[C@H](Cc1ccc(Cl)cc1)C(=O)O; d2Nal = N[C@H](Cc1ccc2ccccc2c1)C(=O)O; Lys(iPr) = CC(C)NCCCC[C@H](N)C(=O)O; NMeY = CN[C@@H](Cc1ccc(O)cc1)C(=O)O; Piperazinyl(4-Me) = CN1CCN(*)CC1; dCit = NC(=O)NCCC[C@@H](N)C(=O)O; d3Pal = N[C@H](Cc1cccnc1)C(=O)O; Nicotinoyl = O=C(c1cccnc1)*; Isobutyryl = CC(C)C(=O)*; PhAc = O=C(Cc1ccccc1)*; CO = O=C([*:1])[*:2]; Glycolyl = O=C(CO)*
Define the label as class 1 when Kb is strictly less than 0.02 nM and as class 0 in all remaining cases.

1. CC(C)C[C@H](NC(=O)[C@@H](CCCCNC(=O)c1cccnc1)NC(=O)[C@H](Cc1ccc(O)cc1)N(C)C(=O)[C@H](CO)NC(=O)[C@@H](Cc1cccnc1)NC(=O)[C@@H](Cc1ccc(Cl)cc1)NC(=O)[C@@H](Cc1ccc2ccccc2c1)NC(=O)C(C)C)C(=O)N[C@@H](CCCCNC(C)C)C(=O)N1CCC[C@H]1C(=O)N[C@H](C)C(N)=O [Example 2c] (Isobutyryl-[d2Nal][dPhe(4-Cl)][d3Pal]S[NMeY][dK](Nicotinoyl)L[Lys(iPr)]P[dA]-NH2) : class 1
2. CC(C)C[C@H](NC(=O)[C@@H](CCCNC(N)=O)NC(=O)[C@H](Cc1ccc(O)cc1)N(C)C(=O)[C@H](CO)NC(=O)[C@@H](Cc1cccnc1)NC(=O)[C@@H](Cc1ccc(Cl)cc1)NC(=O)[C@@H](Cc1ccc2ccccc2c1)NC(=O)N1CCN(C)CC1)C(=O)N[C@@H](CCCNC(=N)N)C(=O)N1CCC[C@H]1C(=O)N[C@H](C)C(N)=O [Example 8d] ({Piperazinyl(4-Me)-CO}-[d2Nal][dPhe(4-Cl)][d3Pal]S[NMeY][dCit]LRP[dA]-NH2) : class 0
3. CC(C)C[C@H](NC(=O)[C@@H](CCCNC(N)=O)NC(=O)[C@H](Cc1ccc(O)cc1)N(C)C(=O)[C@H](CO)NC(=O)[C@@H](Cc1cccnc1)NC(=O)[C@@H](Cc1ccc(Cl)cc1)NC(=O)[C@@H](Cc1ccc2ccccc2c1)NC(=O)CO)C(=O)N[C@@H](CCCNC(=N)N)C(=O)N1CCC[C@H]1C(=O)N[C@H](C)C(N)=O [Example 4] (Glycolyl-[d2Nal][dPhe(4-Cl)][d3Pal]S[NMeY][dCit]LRP[dA]-NH2) : class 1
4. CC(C)C[C@H](NC(=O)[C@@H](CCCNC(N)=O)NC(=O)[C@H](Cc1ccc(O)cc1)N(C)C(=O)[C@H](CO)NC(=O)[C@@H](Cc1cccnc1)NC(=O)[C@@H](Cc1ccc(Cl)cc1)NC(=O)[C@@H](Cc1ccc2ccccc2c1)NC(=O)Cc1ccccc1)C(=O)N[C@@H](CCCNC(=N)N)C(=O)N1CCC[C@H]1C(=O)N[C@H](C)C(N)=O [Example 5f] (PhAc-[d2Nal][dPhe(4-Cl)][d3Pal]S[NMeY][dCit]LRP[dA]-NH2) : class 1

* * *

Each entry below carries its reported Kb.
target: LHRH (Rattus norvegicus); construct: evaluated in an in vitro test for LHRH antagonist potency (pA2); endogenous in cells; host or cells: pituitary cells (rat, from my own knowledge of the cited method); assay: in vitro test for LHRH antagonist potency (pA2); type: cell-based; conditions: negative logarithm of the antagonist concentration required to shift the response curve produced by the agonist leuprolide to two-fold higher concentration
Square brackets hold non-standard residues; d marks the D form. Peptide text beside a SMILES is read from it. * marks the point of attachment. dPhe(4-Cl) = N[C@H](Cc1ccc(Cl)cc1)C(=O)O; d2Nal = N[C@H](Cc1ccc2ccccc2c1)C(=O)O; Lys(iPr) = CC(C)NCCCC[C@H](N)C(=O)O; NMeY = CN[C@@H](Cc1ccc(O)cc1)C(=O)O; dCit = NC(=O)NCCC[C@@H](N)C(=O)O; d3Pal = N[C@H](Cc1cccnc1)C(=O)O; Succinamoyl = NC(=O)CCC(=O)*; Nicotinoyl = O=C(c1cccnc1)*; Propionyl = CCC(=O)*
experimentalEndpoint: Kb (pM)

1) CC(C)C[C@H](NC(=O)[C@@H](CCCNC(N)=O)NC(=O)[C@H](Cc1ccc(O)cc1)N(C)C(=O)[C@H](CO)NC(=O)[C@@H](Cc1cccnc1)NC(=O)[C@@H](Cc1ccc(Cl)cc1)NC(=O)[C@@H](Cc1ccc2ccccc2c1)NC(=O)CCC(N)=O)C(=O)N[C@@H](CCCNC(=N)N)C(=O)N1CCC[C@H]1C(=O)N[C@H](C)C(N)=O [Example 5d] (Succinamoyl-[d2Nal][dPhe(4-Cl)][d3Pal]S[NMeY][dCit]LRP[dA]-NH2) : 6.46
2) CCC(=O)N[C@H](Cc1ccc2ccccc2c1)C(=O)N[C@H](Cc1ccc(Cl)cc1)C(=O)N[C@H](Cc1cccnc1)C(=O)N[C@@H](CO)C(=O)N(C)[C@@H](Cc1ccc(O)cc1)C(=O)N[C@H](CCCCNC(=O)c1cccnc1)C(=O)N[C@@H](CC(C)C)C(=O)N[C@@H](CCCCNC(C)C)C(=O)N1CCC[C@H]1C(=O)N[C@H](C)C(N)=O [Example 2a] (Propionyl-[d2Nal][dPhe(4-Cl)][d3Pal]S[NMeY][dK](Nicotinoyl)L[Lys(iPr)]P[dA]-NH2) : 5.01

* * *

Molecular target: LHRH (Rattus norvegicus)
Construct: evaluated in an in vitro test for LHRH antagonist potency (pA2); endogenous in cells; host or cells: pituitary cells (rat, from my own knowledge of the cited method)
Sequence (P30969 1-327): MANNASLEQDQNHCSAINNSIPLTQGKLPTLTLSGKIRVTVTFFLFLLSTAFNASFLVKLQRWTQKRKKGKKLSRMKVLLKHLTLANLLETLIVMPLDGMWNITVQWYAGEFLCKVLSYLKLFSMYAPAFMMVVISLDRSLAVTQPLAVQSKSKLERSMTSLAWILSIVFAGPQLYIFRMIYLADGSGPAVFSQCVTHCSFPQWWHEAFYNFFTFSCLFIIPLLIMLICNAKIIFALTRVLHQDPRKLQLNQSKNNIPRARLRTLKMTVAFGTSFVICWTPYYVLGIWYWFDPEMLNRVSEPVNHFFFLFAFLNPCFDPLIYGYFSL
Assay: in vitro test for LHRH antagonist potency (pA2)
Format: cell-based
Conditions: negative logarithm of the antagonist concentration required to shift the response curve produced by the agonist leuprolide to two-fold higher concentration
Numbered stars: 1 amine (or outer) side, 2 acyl side, 3 side chain; on linkers, the order of the positions; unused ones are H or OH. Square brackets hold non-standard residues; d marks the D form. Peptide text beside a SMILES is read from it. * marks the point of attachment. dPhe(4-Cl) = N[C@H](Cc1ccc(Cl)cc1)C(=O)O; d2Nal = N[C@H](Cc1ccc2ccccc2c1)C(=O)O; Lys(iPr) = CC(C)NCCCC[C@H](N)C(=O)O; NMeY = CN[C@@H](Cc1ccc(O)cc1)C(=O)O; d3Pal = N[C@H](Cc1cccnc1)C(=O)O; Suc = O=C(CCC(=O)[*:2])[*:1]; Nicotinoyl = O=C(c1cccnc1)*
experimentalEndpoint: Kb (nM)

1) CC(C)C[C@H](NC(=O)[C@@H](CCCCNC(=O)c1cccnc1)NC(=O)[C@H](Cc1ccc(O)cc1)N(C)C(=O)[C@H](CO)NC(=O)[C@@H](Cc1cccnc1)NC(=O)[C@@H](Cc1ccc(Cl)cc1)NC(=O)[C@@H](Cc1ccc2ccccc2c1)NC(=O)CCC(=O)O)C(=O)N[C@@H](CCCCNC(C)C)C(=O)N1CCC[C@H]1C(=O)N[C@H](C)C(N)=O [Example 3] (Suc-[d2Nal][dPhe(4-Cl)][d3Pal]S[NMeY][dK](Nicotinoyl)L[Lys(iPr)]P[dA]-NH2) : 0.0513

* * *

Target: LHRH (Rattus norvegicus, UniProt P30969)
Construct: evaluated in an in vitro test for LHRH antagonist potency (pA2); endogenous in cells; host or cells: pituitary cells (rat, from my own knowledge of the cited method)
Sequence (P30969 1-327): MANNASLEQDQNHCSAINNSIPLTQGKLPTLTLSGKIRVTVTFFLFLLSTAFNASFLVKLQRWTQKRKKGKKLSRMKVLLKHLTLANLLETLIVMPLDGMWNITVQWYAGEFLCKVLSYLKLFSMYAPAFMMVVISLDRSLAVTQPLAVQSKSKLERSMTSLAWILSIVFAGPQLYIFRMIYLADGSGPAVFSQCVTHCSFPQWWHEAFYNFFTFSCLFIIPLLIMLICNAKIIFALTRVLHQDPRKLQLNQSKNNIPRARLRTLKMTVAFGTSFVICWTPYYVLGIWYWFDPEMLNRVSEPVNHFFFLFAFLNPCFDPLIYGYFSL
Test: in vitro test for LHRH antagonist potency (pA2)
Assay type: cell-based
Settings: negative logarithm of the antagonist concentration required to shift the response curve produced by the agonist leuprolide to two-fold higher concentration
Square brackets hold non-standard residues; d marks the D form. Peptide text beside a SMILES is read from it. * marks the point of attachment. dPhe(4-Cl) = N[C@H](Cc1ccc(Cl)cc1)C(=O)O; d2Nal = N[C@H](Cc1ccc2ccccc2c1)C(=O)O; Lys(iPr) = CC(C)NCCCC[C@H](N)C(=O)O; NMeY = CN[C@@H](Cc1ccc(O)cc1)C(=O)O; d3Pal = N[C@H](Cc1cccnc1)C(=O)O; Nicotinoyl = O=C(c1cccnc1)*; X4 = N#CCC(=O)*; For = O=C*
Each entry below carries its reported Kb.
experimentalEndpoint: Kb (pM)

1) CC(C)C[C@H](NC(=O)[C@@H](CCCCNC(=O)c1cccnc1)NC(=O)[C@H](Cc1ccc(O)cc1)N(C)C(=O)[C@H](CO)NC(=O)[C@@H](Cc1cccnc1)NC(=O)[C@@H](Cc1ccc(Cl)cc1)NC(=O)[C@@H](Cc1ccc2ccccc2c1)NC(=O)CC#N)C(=O)N[C@@H](CCCCNC(C)C)C(=O)N1CCC[C@H]1C(=O)N[C@H](C)C(N)=O [Example 2e] (X4-[d2Nal][dPhe(4-Cl)][d3Pal]S[NMeY][dK](Nicotinoyl)L[Lys(iPr)]P[dA]-NH2) : 3.16
2) CC(C)C[C@H](NC(=O)[C@@H](CCCCNC(=O)c1cccnc1)NC(=O)[C@H](Cc1ccc(O)cc1)N(C)C(=O)[C@H](CO)NC(=O)[C@@H](Cc1cccnc1)NC(=O)[C@@H](Cc1ccc(Cl)cc1)NC(=O)[C@@H](Cc1ccc2ccccc2c1)NC=O)C(=O)N[C@@H](CCCCNC(C)C)C(=O)N1CCC[C@H]1C(=O)N[C@H](C)C(N)=O [Example 1] (For-[d2Nal][dPhe(4-Cl)][d3Pal]S[NMeY][dK](Nicotinoyl)L[Lys(iPr)]P[dA]-NH2) : 1.58

Source listed as patent US5413990A.
